# targetEntity: D2 receptor (Rattus norvegicus, UniProt P61169)
# Construct: on rat brain striatal membrane preparation; from tissue; host or cells: rat brain striatum membranes
# Sequence (P61169 whole entry): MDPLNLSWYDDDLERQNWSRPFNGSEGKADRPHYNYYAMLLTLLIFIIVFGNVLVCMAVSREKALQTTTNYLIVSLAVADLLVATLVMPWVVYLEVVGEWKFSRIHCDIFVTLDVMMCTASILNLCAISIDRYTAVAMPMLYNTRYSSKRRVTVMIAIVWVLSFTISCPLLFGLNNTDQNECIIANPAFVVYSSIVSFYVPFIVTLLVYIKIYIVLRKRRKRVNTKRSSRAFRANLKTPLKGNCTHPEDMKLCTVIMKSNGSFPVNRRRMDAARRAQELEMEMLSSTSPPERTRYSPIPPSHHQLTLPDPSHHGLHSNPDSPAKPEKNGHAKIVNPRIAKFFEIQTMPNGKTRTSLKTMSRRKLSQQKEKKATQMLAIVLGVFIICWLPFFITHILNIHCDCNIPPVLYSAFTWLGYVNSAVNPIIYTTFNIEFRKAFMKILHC
# assayText: D2 receptor binding ([3H]spiperone, rat brain striatal membrane preparation)
# runParameters: Ki D2 / Ki D3
observable: D2 Sel. (D2/D3 selectivity, i.e., Ki for D2 receptor divided by Ki for D3 receptor)
# answer = number (no unit)

Example entries and their recorded answers appear below.
In [3]: df
Out[3]:
                                   compound  readoutvalue
0  CCNc1nc(Cl)c(Cl)c(N2CCN(CC[C@H]3CC[C@H](NC(C)=O)CC3)CC2)n1            23
1  CNc1nc(Cl)c(Cl)c(N2CCN(CC[C@H]3CC[C@H](NC(C)=O)CC3)CC2)n1            22
2  CCC(=O)NC1CCC(CCN2CCN(c3nc(NC)nc(Cl)c3Cl)CC2)CC1 (stereo not drawn)            43

Identify D2 Sel. (D2/D3 selectivity, i.e., Ki for D2 receptor divided by Ki for D3 receptor) associated with the compound CNc1nc(Cl)c(Cl)c(N2CCN(CC[C@H]3CC[C@H](NC(N)=O)CC3)CC2)n1 27

For CCNC(=O)N[C@H]1CC[C@H](CCN2CCN(c3nc(NC)nc(Cl)c3Cl)CC2)CC1 , write its D2 Sel. (D2/D3 selectivity, i.e., Ki for D2 receptor divided by Ki for D3 receptor). 17

Could you please provide reported D2 Sel. (D2/D3 selectivity, i.e., Ki for D2 receptor divided by Ki for D3 receptor) for CNc1nc(Cl)c(Cl)c(N2CCN(CCC3CCC(NC(=O)N(C)C)CC3)CC2)n1 (stereo not drawn) ? Thanks! 7
